Test system: ACHN
MEASUREMENT DESCRIPTION: Cytotoxicity against ACHN cells
Type: functional, cell-based
EXPERIMENTAL SETUP: Homo sapiens
Kindly supply the reported IC50 values for the records listed here.
Report the figure in µM without appending any unit label.

Req: Any idea what IC50 was measured for C/C(=C\C[n+]1cn(C)c2nc[nH]/c(=N\OCc3ccccc3)c21)CCCC(C)CCCC(C)CCCC(C)C (configuration not stated) ?
Resp: 20.5

Req: Any idea what IC50 was measured for CO/N=c1\[nH]cnc2c1[n+](C/C=C(\C)CC/C=C(\C)CC/C=C(\C)CCC=C(C)C)cn2CCC#N ?
Resp: 11.4

Req: Any idea what IC50 was measured for CO/N=c1\[nH]cnc2ncn(C/C=C(\C)CC/C=C(\C)CC/C=C(\C)CCC=C(C)C)c12 ?
Resp: 18.1

Req: Any idea what IC50 was measured for CO/N=c1\[nH]cnc2c1[n+](C/C=C(\C)CC/C=C(\C)CC/C=C(\C)CCC=C(C)C)cn2C ?
Resp: 7.38

Req: Any idea what IC50 was measured for CC(=O)O[C@H]1C(=O)[C@@]2(C)[C@H]([C@H](OC(=O)c3ccccc3)[C@]3(O)C[C@H](OC(=O)[C@H](O)[C@@H](NC(=O)c4ccccc4)c4ccccc4)C(C)=C1C3(C)C)[C@]1(OC(C)=O)CO[C@@H]1C[C@@H]2O ?
Resp: 31.5

Req: Any idea what IC50 was measured for C/C(=C\C[n+]1cn(C)c2ncnc(N)c21)CCCC(C)CCCC(C)CCCC(C)C (configuration not stated) ?
Resp: 11.3

Req: Any idea what IC50 was measured for CC(C)=CCC/C(C)=C/CC/C(C)=C/CC/C(C)=C/Cn1cnc2ncnc(N)c21 ?
Resp: 7.24

Req: Any idea what IC50 was measured for CC(C)=CCC/C(C)=C/CC/C(C)=C/CC/C(C)=C/C[n+]1cn(CCC#N)c2nc[nH]/c(=N\OCc3ccccc3)c21 ?
Resp: 38.9

Req: Any idea what IC50 was measured for CO/N=c1\[nH]cnc2c1[n+](C/C=C(\C)CC/C=C(/C)CCC=C(C)C)cn2C ?
Resp: 28.7

Req: Any idea what IC50 was measured for CC(C)=CCC/C(C)=C/CC/C(C)=C/CC/C(C)=C/C[n+]1cn(C(c2ccccc2)c2ccccc2)c2nc[nH]/c(=N\OCc3ccccc3)c21 ?
Resp: 17.2

====

Tested on: U-937/GTB
MEASUREMENT DESCRIPTION: Cytotoxicity against U937 GTB cells
Assay type: functional, cell-based
EXPERIMENTAL SETUP: Homo sapiens
Kindly supply the reported IC50 values for the records listed here.
Report the figure in µM without appending any unit label.

Req: Enter reported IC50 observed with U-937/GTB for CO/N=c1\[nH]cnc2c1[n+](C/C=C(\C)CCCC(C)CCCC(C)CCCC(C)C)cn2C (stereo not drawn)
Resp: 5.4

Req: Enter reported IC50 observed with U-937/GTB for CC(C)=CCC/C(C)=C/CC/C(C)=C/CC/C(C)=C/C[n+]1cn(C)c2nc[nH]/c(=N\OCc3ccccc3)c21
Resp: 6.79

Req: Enter reported IC50 observed with U-937/GTB for CO/N=c1\[nH]cnc2c1[n+](C/C=C(\C)CC/C=C(\C)CC/C=C(\C)CCC=C(C)C)cn2CCC#N
Resp: 3.33

Req: Enter reported IC50 observed with U-937/GTB for CO/N=c1\[nH]cnc2ncn(C/C=C(\C)CC/C=C(\C)CC/C=C(\C)CCC=C(C)C)c12
Resp: 3.31

Req: Enter reported IC50 observed with U-937/GTB for CC(C)=CCC/C(C)=C\CC/C(C)=C/C[n+]1cn(C)c2nc[nH]/c(=N\OCc3ccccc3)c21
Resp: 7.55

Req: Enter reported IC50 observed with U-937/GTB for CC(C)=CCC/C(C)=C/CC/C(C)=C/CC/C(C)=C/C[n+]1cn(C(c2ccccc2)c2ccccc2)c2nc[nH]/c(=N\OCc3ccccc3)c21
Resp: 4.24

Req: Enter reported IC50 observed with U-937/GTB for CO/N=c1\[nH]cnc2c1[n+](C/C=C(\C)CC/C=C(\C)CC/C=C(\C)CCC=C(C)C)cn2C(c1ccccc1)c1ccccc1
Resp: 1.97

Req: Enter reported IC50 observed with U-937/GTB for CO/N=c1\[nH]cnc2c1[n+](C/C=C(\C)CC/C=C(\C)CC/C=C(\C)CCC=C(C)C)cn2C(C)C
Resp: 1.1

Req: Enter reported IC50 observed with U-937/GTB for CC(C)=CCC/C(C)=C/CC/C(C)=C/CC/C(C)=C/Cn1cnc2ncnc(Cl)c21
Resp: 5.07

Req: Enter reported IC50 observed with U-937/GTB for CC(C)=CCC/C(C)=C/CC/C(C)=C/CC/C(C)=C/Cn1cnc2c1c(=N)ncn2C
Resp: 6.4

Req: Enter reported IC50 observed with U-937/GTB for C/C(=C\C[n+]1cn(C)c2ncnc(N)c21)CCCC(C)CCCC(C)CCCC(C)C (stereo not drawn)
Resp: 3.18

Req: Enter reported IC50 observed with U-937/GTB for CC(C)=CCC/C(C)=C/CC/C(C)=C/CC/C(C)=C/Cn1cnc2c1C(=N)N(C)CN2C
Resp: 3.36

Req: Enter reported IC50 observed with U-937/GTB for C/C(=C\C[n+]1cn(C)c2nc[nH]/c(=N\OCc3ccccc3)c21)CCCC(C)CCCC(C)CCCC(C)C (stereo not drawn)
Resp: 10.8

Req: Enter reported IC50 observed with U-937/GTB for CC(C)=CCC/C(C)=C/CC/C(C)=C/CC/C(C)=C/C[n+]1cn(CCC#N)c2nc[nH]/c(=N\OCc3ccccc3)c21
Resp: 24.2

The origin of these recorded values is ChEMBL document CHEMBL1148008.
